System: HCV replicon
assay-remarks: Replicon based assay of HCV replication inhibition (NPT ELISA)
Format: cell-based, Hepatitis C virus
condition-parameters: Hepatitis C virus, Huh-7, 72 h, Table III; Huh-7 HCV replicon-containing cells, three days; read-out: Activity
Below is a list of entries, each paired with its recorded EC50 value.

In [3]: df
Out[3]:
                               query_smiles  readout_label  measurement
0  CCCCCCCCN(C)c1ccc(Nc2nc(-c3cc4ccccc4o3)cs2)cc1C(F)(F)F           EC50   1 to 10 µM

# input Sample "CCCCCCCCOc1ccc(Nc2nc(-c3cncc(C(=O)N(C)C)c3)cs2)cc1" — what was its EC50?
# output 1 to 10 µM

# input Thanks! And "CCCC/C=C\CCOc1ccc(Nc2nc(-c3ccc(C)nc3)cs2)cc1C(F)(F)F" ?
# output < 1 µM

# input What about "CCCCCOc1ccc(Nc2nc(-c3cc4cccnc4nc3O)cs2)cc1C(F)(F)F" ?
# output 1 to 10 µM

# input Would you mind doing "CCCCCCCCN(C)c1ccc(Nc2nc(-c3ccc(Cl)cc3)cs2)cc1C(F)(F)F" as well?
# output < 1 µM

# input Next compound up: "Fc1ccc(-c2csc(Nc3ccc(OCCCC4CCCC4)c(C(F)(F)F)c3)n2)cn1"
# output < 1 µM

====

Test system: HCV replicon
assay-remarks: Replicon based assay of HCV replication inhibition (NPT ELISA)
Assay type: cell-based, Hepatitis C virus
condition-parameters: Hepatitis C virus, replicon based assay of HCV replication inhibition; Table IV; read-out: Activity
Protocol: Compounds claimed herein are tested for the ability to inhibit viral replication of the Hepatitis C replicon in cultured cells in which the HCV replicon construct has been incorporated. […] In this assay HCV replicon containing cells are treated with different concentrations of the test compound to ascertain the ability of the test compound to suppress replication of the HCV replicon. […] The NPT level of each sample is measured using a captured ELISA. […]
readout-label: EC50

Study these solved cases before continuing.
>>> print(df.to_string())
                                   compound  study_system  readout_label  measurement
0  COc1ccc(Nc2nc(-c3cccnc3)cs2)cc1 [compound 886]  HCV replicon           EC50   > 10000 nM
1  c1cncc(-c2csc(Nc3ccc(OCCCCc4cccs4)cc3)n2)c1 [compound 922]  HCV replicon           EC50    < 1000 nM
2  Fc1sc(Nc2ccc(OCCCC3CCCC3)c(C(F)(F)F)c2)nc1-c1cccnc1 [compound 945]  HCV replicon           EC50    < 1000 nM
3  CCOC(=O)c1csc(-c2csc(Nc3ccc(OCC4CCCCC4)c(C(F)(F)F)c3)n2)n1 [compound 769]  HCV replicon           EC50    < 1000 nM

# input Sample CCn1c(C)nc2cc(Nc3nc(-c4cccnc4)cs3)ccc21 [compound 750] — what was its EC50?
# output > 10000 nM

====

Tested on: HCV replicon
assay-remarks: Replicon based assay of HCV replication inhibition (NPT ELISA)
Type: cell-based, Hepatitis C virus
condition-parameters: Hepatitis C virus, replicon based assay of HCV replication inhibition; Table IV; read-out: Activity
readout-label: EC50

>>> df
                               query_smiles  measurement
0  CCCCCOc1ccc(Nc2nc(-c3cccnc3)c(F)s2)cc1C(F)(F)F    < 1000 nM
1  CCCCCCCCOc1ccc(Nc2nc(-c3csc(N)n3)cs2)cc1C(F)(F)F    < 1000 nM

# input // lookup EC50 | system=HCV replicon | key= "c1cncc(-c2csc(Nc3ccc4c(c3)OCO4)n2)c1"
# output > 10000 nM

# input Next entry: "CCCCc1ccc(Nc2nc(-c3cccnc3)cs2)c(C)c1"
# output < 1000 nM

# input Also "Fc1cc(Nc2nc(-c3ccc(-c4csnn4)cc3)cs2)ccc1OCC1CCCCC1" ?
# output 1000 to 10000 nM

# input Same thing, different molecule: "COc1ncc(-c2csc(Nc3ccc(CCCCCc4ccccc4)c(C(F)(F)F)c3)n2)cn1"
# output < 1000 nM

# input Check "O=C(O)Cc1ccc(-c2csc(Nc3ccc(OCCCCc4ccccc4)c(C(F)(F)F)c3)n2)s1" too.
# output < 1000 nM

# input Then "FC(F)(F)c1cc(Nc2nc(-c3cccnc3)cs2)ccc1OCCSc1ccccc1" ?
# output < 1000 nM

====

Tested on: HCV replicon
assay-remarks: Replicon based assay of HCV replication inhibition (NPT ELISA)
Format: cell-based, Hepatitis C virus
condition-parameters: Hepatitis C virus, Huh-7, 72 h, Table III; Huh-7 HCV replicon-containing cells, three days; read-out: Activity
pEC50: −log10 of the molar value.
Below, each of the compounds is paired with its reported pEC50 value.

Consider the reported pEC50 for these compounds:
>>> print(df.to_string())
                               query_smiles  study_system   measurement
0  CCCCCCCCOc1ccc(Nc2nc(-c3ccsc3C(N)=O)cs2)cc1C(F)(F)F  HCV replicon        > 6.00
1  CCCCCCCCc1ccc(Nc2nc(-c3sc(-c4cnccn4)nc3C)cs2)cc1  HCV replicon        > 6.00
2  CCCCCOc1ccc(Nc2nc(-c3cncc(C(=O)OCC)c3)cs2)cc1C(F)(F)F  HCV replicon  5.00 to 6.00

Shifting focus to the compound that follows.
# input Please give the measured pEC50 for this compound: "CCCCCN(C)c1ccc(Nc2nc(Cc3ccc(F)cc3)cs2)cc1C(F)(F)F"
# output < 5.00

====

Below, each of the compounds is paired with its reported EC50 value.
Tested on: HCV replicon
assay-remarks: Replicon based assay of HCV replication inhibition (NPT ELISA)
Assay type: cell-based, Hepatitis C virus
condition-parameters: Hepatitis C virus, replicon based assay of HCV replication inhibition; Table IV; read-out: Activity

The examples below pair each entry with its known result.
In [3]: df
Out[3]:
                                   compound  readout_label  measurement
0  CCOC(=O)Cc1csc(Nc2nc(-c3cccnc3)cs2)n1 [compound 790]           EC50      > 10 µM
1  CCCCCCCCOc1ccc(Nc2nc(-c3cnc[nH]3)cs2)cc1C(F)(F)F [compound 811]           EC50       < 1 µM
2  CCCCCCCCOc1ccc(Nc2nc(-c3cccnc3)c([N+](=O)[O-])s2)cc1C(F)(F)F [compound 787]           EC50   1 to 10 µM
3  COc1ccc2cc(-c3csc(Nc4ccc(OCC5CCCCC5)c(C(F)(F)F)c4)n3)ccc2c1 [compound 773]           EC50       < 1 µM
4  FC(F)(F)c1ccc(Nc2nc(-c3cccnc3)cs2)cc1 [compound 891]           EC50   1 to 10 µM

# input for lookup
# input Look up EC50 for this compound: Fc1cc(Nc2nc(-c3cccc4nsnc34)cs2)ccc1OCC1CCCCC1 [compound 722]
# output 1 to 10 µM

====

Test system: HCV replicon
assay-remarks: Replicon based assay of HCV replication inhibition (NPT ELISA)
Format: cell-based, Hepatitis C virus
condition-parameters: Hepatitis C virus, replicon based assay of HCV replication inhibition; Table IV; read-out: Activity
pEC50: −log10 of the molar value.
readout-label: pEC50

# input // pEC50 lookup, key: "CN(CCOc1ccc(Nc2nc(-c3cccnc3)cs2)cc1C(F)(F)F)c1ccccc1"
# output > 6.00

# input And then "Cc1ccc(-c2ccccc2)cc1Nc1nc(-c2cccnc2)cs1" , what is it?
# output < 5.00

# input Also check "OCc1cc2cc(-c3csc(Nc4ccc(OCC5CCCCC5)c(C(F)(F)F)c4)n3)ccc2o1"
# output > 6.00

====

Test system: HCV replicon
assay-remarks: Replicon based assay of HCV replication inhibition (NPT ELISA)
Format: cell-based, Hepatitis C virus
condition-parameters: Hepatitis C virus, Huh-7, 72 h, Table III; Huh-7 HCV replicon-containing cells, three days; read-out: Activity
Collected EC50 values appear next to each entry.

Solved entries:
In [3]: df
Out[3]:
                               query_smiles  readout_label  measurement
0  FC(F)(F)c1cc(Nc2nc(-c3cnccn3)cs2)ccc1OC1CCCC1           EC50       < 1 µM
1  CCCCCCCCc1ccc(Nc2nc(-c3cc4ccccc4o3)cs2)cc1           EC50   1 to 10 µM
2  CCCCCCCCOc1ccc(Nc2nc(-c3cncnc3-c3ccccc3)cs2)cc1C(F)(F)F           EC50       < 1 µM

# input Which EC50 reading was recorded for the compound "CCCCCCCCOc1ccc(Nc2nc(-c3ccc(C#N)nc3)cs2)cc1C(F)(F)F" ?
# output < 1 µM

# input Continue with "CCCCCCCCOc1ccc(Nc2nc(-c3cncc(C#N)c3)cs2)cc1"
# output < 1 µM

# input Again, but for "CCCCCCCCOc1cccc(Nc2nc(-c3cccnc3)cs2)c1"
# output < 1 µM

# input One more compound: "CCCCCOc1ccc(Nc2nc(-c3ccc4c(c3)OCO4)cs2)cc1C(F)(F)F"
# output < 1 µM

# input Cool, now "CCCCCCCCOc1ccc(Nc2nc(-c3ccc4c(c3)COC4=O)cs2)cc1C(F)(F)F"
# output < 1 µM
